These entries and their values trace back to paper PMC8832557.

Please go through the items and note down their Kd.
- Tgt: ACE2 (angiotensin-I converting enzyme 2) (Homo sapiens, UniProt Q9BYF1)
- Sequence (Q9BYF1 18-805): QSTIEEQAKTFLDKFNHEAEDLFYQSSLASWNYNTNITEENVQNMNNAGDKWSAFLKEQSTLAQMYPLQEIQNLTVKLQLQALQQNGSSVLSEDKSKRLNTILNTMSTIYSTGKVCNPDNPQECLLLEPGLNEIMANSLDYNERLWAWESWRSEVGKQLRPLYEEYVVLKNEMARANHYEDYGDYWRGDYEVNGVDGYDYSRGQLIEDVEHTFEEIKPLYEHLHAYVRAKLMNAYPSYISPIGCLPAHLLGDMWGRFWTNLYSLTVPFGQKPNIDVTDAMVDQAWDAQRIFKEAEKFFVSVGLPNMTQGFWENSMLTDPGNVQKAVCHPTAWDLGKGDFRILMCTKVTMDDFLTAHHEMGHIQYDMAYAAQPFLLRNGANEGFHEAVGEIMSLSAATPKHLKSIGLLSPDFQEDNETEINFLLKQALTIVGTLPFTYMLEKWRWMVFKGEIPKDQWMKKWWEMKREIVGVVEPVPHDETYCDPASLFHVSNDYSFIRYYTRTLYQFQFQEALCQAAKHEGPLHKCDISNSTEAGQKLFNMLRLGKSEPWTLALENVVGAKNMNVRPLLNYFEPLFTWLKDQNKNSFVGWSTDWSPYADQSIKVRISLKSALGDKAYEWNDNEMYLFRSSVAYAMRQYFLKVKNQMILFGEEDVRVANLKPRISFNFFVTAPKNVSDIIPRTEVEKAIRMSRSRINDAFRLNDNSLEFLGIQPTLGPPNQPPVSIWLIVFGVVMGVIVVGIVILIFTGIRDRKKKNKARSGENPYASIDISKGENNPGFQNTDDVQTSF
- Measurement description: SPR
- Type: binding
Just the number in µM, nothing appended.

Task: State its Kd on ACE2 (angiotensin-I converting enzyme 2) (Homo sapiens, UniProt Q9BYF1): `Cc1ccc(NC(=O)c2ccc(CN3CCN(C)CC3)cc2)cc1Nc1nccc(-c2cccnc2)n1`
Output: 12.7

Task: State its Kd on ACE2 (angiotensin-I converting enzyme 2) (Homo sapiens, UniProt Q9BYF1): C[C@]1(OC(=O)/C=C/c2ccccc2)C[C@@H](O)[C@]2(O)C=CO[C@@H](O[C@@H]3O[C@H](CO)[C@@H](O)[C@H](O)[C@H]3O)[C@@H]21 [Har, harpagoside]
Output: 86.1

Task: State its Kd on ACE2 (angiotensin-I converting enzyme 2) (Homo sapiens, UniProt Q9BYF1): CC(=O)/N=c1/sc(S(N)(=O)=O)nn1C [Met, methazolamide]
Output: 70

###

- Tgt: ACE2 (angiotensin-I converting enzyme 2) (Homo sapiens)
- Measurement description: SPR
- Assay type: binding
Endpoint label: Kd
In your response, the unit should come after the numeric value.

Task: State its Kd on ACE2 (angiotensin-I converting enzyme 2) (Homo sapiens): N=C(N)c1ccc(/N=N/Nc2ccc(C(=N)N)cc2)cc1 [DIZE, diminazene aceturate]
Output: 4.9 µM
